These entries and their values trace back to ChEMBL document CHEMBL2163236.

Study system: Cannabinoid receptor 2 (Homo sapiens)
Sequence (P34972 whole entry): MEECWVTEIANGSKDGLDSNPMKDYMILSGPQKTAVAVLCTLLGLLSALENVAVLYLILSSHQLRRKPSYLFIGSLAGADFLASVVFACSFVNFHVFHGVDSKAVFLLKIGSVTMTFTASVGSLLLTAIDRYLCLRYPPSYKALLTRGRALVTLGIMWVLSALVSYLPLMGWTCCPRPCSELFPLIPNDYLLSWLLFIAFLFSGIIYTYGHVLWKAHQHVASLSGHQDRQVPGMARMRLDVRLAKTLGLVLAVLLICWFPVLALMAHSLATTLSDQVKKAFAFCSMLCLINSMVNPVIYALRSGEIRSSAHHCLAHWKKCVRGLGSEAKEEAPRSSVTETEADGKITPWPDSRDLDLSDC
Run description: Displacement of [3H]CP-55940 from human recombinant CB2 receptor expressed in CHO cell membranes incubated for 60 mins by scintillation counting

# Compound, Study system, Ki (nM)
data = [
    ("CC(C)[C@@H]1COc2cccc3c(=O)c(C(=O)NC45CC6CC(CC(C6)C4)C5)cn1c23", "Cannabinoid receptor 2 (Homo sapiens)", 1.24),
    ("O=C(NC12CC3CC(CC(C3)C1)C2)c1cn2c3c(cccc3c1=O)OCC2C1CC1 (racemic)", "Cannabinoid receptor 2 (Homo sapiens)", 8.92),
    ("CCCC1COc2cccc3c(=O)c(C(=O)NC45CC6CC(C)(CC(C)(C6)C4)C5)cn1c23 (racemic)", "Cannabinoid receptor 2 (Homo sapiens)", 3.62),
    ("CCC1COc2cccc3c(=O)c(C(=O)Nc4ccncc4)cn1c23 (racemic)", "Cannabinoid receptor 2 (Homo sapiens)", 152),
    ("O=C(NC12CC3CC(CC(C3)C1)C2)c1cn2c3c(cccc3c1=O)OC[C@H]2Cc1ccccc1", "Cannabinoid receptor 2 (Homo sapiens)", 3.72),
    ("CCC1COc2cccc3c(=O)c(C(=O)Nc4nccs4)cn1c23 (racemic)", "Cannabinoid receptor 2 (Homo sapiens)", 265),
    ("O=C(NC1CCCC1)c1cn2c3c(cccc3c1=O)OCC2c1ccccc1 (racemic)", "Cannabinoid receptor 2 (Homo sapiens)", 98),
    ("CC1Oc2cccc3c(=O)c(C(=O)NC4CCCCC4)cn(c23)C1c1ccccc1 (racemic)", "Cannabinoid receptor 2 (Homo sapiens)", 536),
    ("CC(C)C[C@@H]1COc2cccc3c(=O)c(C(=O)NC45CC6CC(CC(C6)C4)C5)cn1c23", "Cannabinoid receptor 2 (Homo sapiens)", 9.24),
]
